# experimental_system: T1, human GIP receptor (human, UniProt P48546 22-466)
# T1 construct: whole, on cells; Used as crude membranes of stably transfected CHO cells; also called hGIPR
# T1 sequence (looked up): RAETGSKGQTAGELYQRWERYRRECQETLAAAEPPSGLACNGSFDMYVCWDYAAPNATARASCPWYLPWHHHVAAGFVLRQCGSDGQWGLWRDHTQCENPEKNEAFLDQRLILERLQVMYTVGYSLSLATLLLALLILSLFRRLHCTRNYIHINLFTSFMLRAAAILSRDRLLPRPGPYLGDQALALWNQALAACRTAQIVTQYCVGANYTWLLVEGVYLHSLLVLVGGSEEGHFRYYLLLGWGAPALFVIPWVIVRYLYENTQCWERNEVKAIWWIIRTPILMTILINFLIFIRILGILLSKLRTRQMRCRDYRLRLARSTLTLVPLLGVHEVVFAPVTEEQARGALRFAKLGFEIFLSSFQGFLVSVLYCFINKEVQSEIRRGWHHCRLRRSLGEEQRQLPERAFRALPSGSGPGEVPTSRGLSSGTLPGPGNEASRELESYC
# assay_text: SPA, [125I]-GIP displacement, hGIPR membranes
Numbered stars: 1 amine (or outer) side, 2 acyl side, 3 side chain; on linkers, the order of the positions; unused ones are H or OH. Square brackets hold non-standard residues; d marks the D form. Side chains are listed from the residue outwards. Ends that are not written are not given here. * marks the point of attachment. C20 diacid = O=C(O)CCCCCCCCCCCCCCCCCCC(=O)*; γGlu = O=C(O)[C@H](CCC(=O)[*:2])N[*:1]; AEEA = NCCOCCOCC(=O)O; Aib = CC(C)(N)C(=O)O
Response field label: string, one of yes (Ki strictly below 0.06 nM) or no.

binder: YXEGTXTSDYSIXLDKKAQXEFIEYLIEGGPSSG (Aib2; αMeF6; αMeL13; K17((2-[2-(2-Amino-ethoxy)-ethoxy]-acetyl)2-(γ-Glu)-CO-(CH2)18-CO2H); Aib20; C-terminal NH2) [Example 123]
label: yes
--
binder: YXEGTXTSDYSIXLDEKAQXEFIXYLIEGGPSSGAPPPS (Aib2; αMeF(2F)6; αMeL13; K17((2-[2-(2-Amino-ethoxy)-ethoxy]-acetyl)2-(γ-Glu)-CO-(CH2)18-CO2H); Aib20; D-Glu24; C-terminal NH2) [Example 1]
label: yes
--
binder: YXEGTXTSDXSIXLDEKAQXEFIXYLIEGGPSSGAPPPS (Aib2; αMeF(2F)6; 4Pal10; αMeL13; K17((2-[2-(2-Amino-ethoxy)-ethoxy]-acetyl)2-(γ-Glu)-CO-(CH2)16-CO2H); Aib20; D-Glu24; C-terminal NH2) [Example 204]
label: no
--
binder: YXEGTXTSDYSIXLDEKAQXEFIEYLIEGG (Aib2; αMeF(2F)6; αMeL13; K17((2-[2-(2-Amino-ethoxy)-ethoxy]-acetyl)2-(γ-Glu)-CO-(CH2)16-CO2H); Aib20; C-terminal NH2) [Example 104]
label: yes
--
binder: YXEGTXTSDVSIXLDEKAQXEFIXYLIEGGPSSGAPPPS (Aib2; αMeF(2F)6; αMeL13; K17((2-[2-(2-Amino-ethoxy)-ethoxy]-acetyl)2-(γ-Glu)-CO-(CH2)18-CO2H); Aib20; D-Glu24; C-terminal NH2) [Example 191]
label: no
--
binder: YXEGTXTSDHSILLDKKAQXAFIEYLIEGGPSSGAPPPS (Aib2; αMeF6; K17((2-[2-(2-Amino-ethoxy)-ethoxy]-acetyl)2-(γ-Glu)-CO-(CH2)18-CO2H); Aib20; C-terminal NH2) [Example 128]
label: no
--
binder: YXEGTFTSDYSILLDKKAQXAFIEYLIEGGPSSGAPPPS (Aib2; K17((2-[2-(2-Amino-ethoxy)-ethoxy]-acetyl)2-(γ-Glu)-CO-(CH2)18-CO2H); Aib20; C-terminal NH2) [Example 8]
label: no
--
binder: YXEGTXTSDXSIXLDKKAQXEFIXYLIEGGPSSGAPPPS (Aib2; αMeF(2F)6; 4Pal10; αMeL13; K17((2-[2-(2-Amino-ethoxy)-ethoxy]-acetyl)2-(γ-Glu)-CO-(CH2)18-CO2H); Aib20; D-Glu24; C-terminal NH2) [Example 203]
label: yes
--
binder: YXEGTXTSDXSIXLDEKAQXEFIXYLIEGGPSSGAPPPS (Aib2; αMeF(2F)6; 4Pal10; αMeL13; K17((2-[2-(2-Amino-ethoxy)-ethoxy]-acetyl)2-CO-(CH2)18-CO2H); Aib20; D-Glu24; C-terminal NH2) [Example 206]
label: no
--
binder: Y[Aib]EGTFTSDYSILLDKIAQ[Aib]AFK([AEEA-AEEA-γGlu-C20 diacid])EYLIEGGPSSGAPPPS-NH2 [Example 33]
label: no
--
binder: YXEGTFTSDYSILLDKKAQXAFIXYLIEGGPSSGAPPPS (Aib2; K17((2-[2-(2-Amino-ethoxy)-ethoxy]-acetyl)2-(γ-Glu)-CO-(CH2)18-CO2H); Aib20; D-Glu24; C-terminal NH2) [Example 84]
label: no
